measured_target: Aplysia AChBP (Aplysia californica, UniProt Q8WSF8)
Sequence (Q8WSF8 18-236): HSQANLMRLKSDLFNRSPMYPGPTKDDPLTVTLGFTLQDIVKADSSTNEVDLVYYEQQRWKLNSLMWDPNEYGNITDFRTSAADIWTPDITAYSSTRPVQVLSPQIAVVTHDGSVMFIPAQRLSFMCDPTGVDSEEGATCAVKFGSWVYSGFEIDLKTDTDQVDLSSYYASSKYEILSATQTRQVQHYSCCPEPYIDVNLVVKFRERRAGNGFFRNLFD
assay: biochemical
Format: binding
pKd: −log10 of the molar value.
measurement_type: pKd

| compound | measurement_type | result |
| --- | --- | --- |
| C[N+](C)(C)CCOC(N)=O | pKd | 3.62 |
| CC[N+](CC)(CC)CCOc1cccc(OCC[N+](CC)(CC)CC)c1OCC[N+](CC)(CC)CC | pKd | 6.92 |
| CN1CCCC1c1cccnc1 (single isomer, unassigned; (-)) [(−)-Nicotine] | pKd | 6.61 |
| CC(=O)OCC[N+](C)(C)C | pKd | 4.48 |
